TEST_DESCRIPTION: Drug uptake in Sprague-Dawley rat liver at 20 mg/kg, po administered via gavage measured after 8 hrs by LC/MS/MS analysis
Type: ADME, organism-based
Design: dose 20 mg/kg, route oral
CONDITIONS_USED: read-out: Drug uptake
ENDPOINT_LABEL: concentration at 8 h (nM)

{"STRUCTURE_NOTATION": "C=C[C@@H]1C[C@]1(NC(=O)[C@@H]1C[C@@H](Oc2cc(-c3ccccc3)nc3cc(OC)ccc23)CN1C(=O)[C@@H](NC(=O)OC(C)(C)C)C(C)(C)C)C(=O)NS(=O)(=O)C1CC1", "ENDPOINT_LABEL": "concentration at 8 h", "VAL": 600}

###

TEST_DESCRIPTION: AUC in intraduodenally dosed Sprague-Dawley rat plasma measured over 4 hrs by LC/MS/MS analysis
Format: ADME, organism-based
Parameters: time < 4 hr, route intraduodenal
CONDITIONS_USED: Sprague-Dawley, plasma

{"STRUCTURE_NOTATION": "C=C[C@@H]1C[C@]1(NC(=O)[C@@H]1C[C@@H](Oc2cc(-c3ccccc3)nc3cc(OC)ccc23)CN1C(=O)[C@@H](NC(=O)OC)C(C)(C)C)C(=O)NS(=O)(=O)C1CC1", "AUC at 4 h": "0.009 µM·h"}
{"STRUCTURE_NOTATION": "C=C[C@@H]1C[C@]1(NC(=O)[C@@H]1C[C@@H](Oc2ccc3ccccc3n2)CN1C(=O)[C@@H](NC(=O)OC(C)(C)C)C(C)(C)C)C(=O)NS(=O)(=O)C1CC1", "AUC at 4 h": "0.279 µM·h"}
{"STRUCTURE_NOTATION": "C=C[C@@H]1C[C@]1(NC(=O)[C@@H]1C[C@@H](Oc2nccc3cc(N4CCOCC4)ccc23)CN1C(=O)[C@@H](NC(=O)OC(C)(C)C)C(C)(C)C)C(=O)NS(=O)(=O)C1CC1", "AUC at 4 h": "0.46 µM·h"}
{"STRUCTURE_NOTATION": "C=C[C@@H]1C[C@]1(NC(=O)[C@@H]1C[C@@H](Oc2nccc3c(Cl)cccc23)CN1C(=O)[C@@H](NC(=O)OC(C)(C)C)C(C)(C)C)C(=O)NS(=O)(=O)C1CC1", "AUC at 4 h": "5.5 µM·h"}

###

TEST_DESCRIPTION: Tmax in po dosed human
Type: ADME, organism-based
CONDITIONS_USED: in vivo

{"STRUCTURE_NOTATION": "C=C[C@@H]1C[C@]1(NC(=O)[C@@H]1C[C@@H](Oc2nccc3cc(OC)ccc23)CN1C(=O)[C@@H](NC(=O)OC(C)(C)C)C(C)(C)C)C(=O)NS(=O)(=O)C1CC1", "UNIT_SPEC": "h", "Tmax": 1.5}

###

TEST_DESCRIPTION: Cytotoxicity against human HuH7 cells
Assay type: cell-based
CONDITIONS_USED: Huh-7 cells
ENDPOINT_LABEL: CC50

{"STRUCTURE_NOTATION": "C=C[C@@H]1C[C@]1(NC(=O)[C@@H]1C[C@@H](Oc2nccc3cc(N4CCOCC4)ccc23)CN1C(=O)[C@@H](NC(=O)OC(C)(C)C)C(C)(C)C)C(=O)NS(=O)(=O)C1CC1", "VAL": "> 100 µM"}
{"STRUCTURE_NOTATION": "CC[C@@H]1C[C@]1(NC(=O)[C@@H]1C[C@@H](Oc2nccc3cc(OC)ccc23)CN1C(=O)[C@@H](NC(=O)OC(C)(C)C)C(C)(C)C)C(=O)NS(=O)(=O)C1CC1", "VAL": "> 100 µM"}
{"STRUCTURE_NOTATION": "C=C[C@@H]1C[C@]1(NC(=O)[C@@H]1C[C@@H](Oc2nccc3cc(-n4cccn4)ccc23)CN1C(=O)[C@@H](NC(=O)OC(C)(C)C)C(C)(C)C)C(=O)NS(=O)(=O)C1CC1", "VAL": "94 µM"}
{"STRUCTURE_NOTATION": "C=C[C@@H]1C[C@]1(NC(=O)[C@@H]1C[C@@H](Oc2nccc3c(OC)cccc23)CN1C(=O)[C@@H](NC(=O)OC(C)(C)C)C(C)(C)C)C(=O)NS(=O)(=O)C1CC1", "VAL": "> 100 µM"}
{"STRUCTURE_NOTATION": "C=C[C@@H]1C[C@]1(NC(=O)[C@@H]1C[C@@H](Oc2nccc3cccc(C)c23)CN1C(=O)[C@@H](NC(=O)OC(C)(C)C)C(C)(C)C)C(=O)NS(=O)(=O)C1CC1", "VAL": "> 100 µM"}
